# TARGET: PPARδ (Homo sapiens, UniProt Q03181)
# Construct: fused to amino acids 147-441 of PPARδ downstream of CMV promoter; expressed in transfected cells; host or cells: HEK293 cells, transiently transfected with pFACMV-PPARδ using Fugene
# ASSAY_METHOD_TEXT: Transactivation assay (PPARδ GAL4 assay) in transiently transfected HEK293 cells
# Assay type: cell-based
# EXPERIMENTAL_PARAMETERS: luciferase reporter, Table 2
pEC50: −log10 of the molar value.
pEC50 values for the molecules below.

Solved cases (7 shown):
>>> df
                                   molecule  property_label   test_result
0  Cc1cc(C(=O)c2ccc(OC(F)(F)F)cc2)c(NC(=O)CSc2ccc(OCC(=O)O)cc2)s1           pEC50        > 7.00
1  CCc1cc(C(=O)c2ccc(Cl)c(Cl)c2)c(NC(=O)CN[C@H](C(=O)O)C(C)C)s1           pEC50  6.00 to 7.00
2  CCc1cc(C(=O)c2ccc(OC(F)(F)F)cc2)c(NC(=O)CNC2(C(=O)O)CCCCC2)s1           pEC50  6.00 to 7.00
3  CCc1cc(C(=O)c2ccc(OC(F)(F)F)cc2)c(NC(=O)CN2CCCC2C(=O)O)s1 (centres unmarked)           pEC50        > 7.00
4  CCc1cc(C(=O)c2nc3ccccc3s2)c(NC(=O)CSCC(=O)O)s1           pEC50  4.52 to 6.00
5  CCc1cc(C(=O)c2ccc(OC(F)(F)F)cc2)c(NC(=O)C(CC)SCC(=O)O)s1 (centres unmarked)           pEC50        > 7.00
6  CCc1cc(C(=O)c2ccc(OC(F)(F)F)c(Cl)c2)c(NC(=O)CN[C@H](C(=O)O)C(C)C)s1           pEC50  6.00 to 7.00

Exam item: Could you please provide reported pEC50 for CCc1cc(C(=O)c2ccc(OC(F)(F)F)cc2)c(NC(=O)[C@H](C)SCC(=O)O)s1 ? Thanks!
Marked response: > 7.00

---

pEC50 values for the compounds below.
# TARGET: PPARδ (Homo sapiens, UniProt Q03181)
# Construct: fused to amino acids 147-441 of PPARδ downstream of CMV promoter; expressed in transfected cells; host or cells: HEK293 cells, transiently transfected with pFACMV-PPARδ using Fugene
# Sequence (Q03181 147-441): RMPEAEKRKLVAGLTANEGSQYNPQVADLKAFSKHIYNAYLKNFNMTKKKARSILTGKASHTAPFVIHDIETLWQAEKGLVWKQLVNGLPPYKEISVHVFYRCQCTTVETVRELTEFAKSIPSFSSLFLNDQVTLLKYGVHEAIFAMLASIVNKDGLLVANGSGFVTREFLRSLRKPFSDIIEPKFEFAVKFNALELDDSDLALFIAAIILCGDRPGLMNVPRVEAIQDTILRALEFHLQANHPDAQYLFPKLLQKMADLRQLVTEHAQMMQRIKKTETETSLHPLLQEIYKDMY
# ASSAY_METHOD_TEXT: Transactivation assay (PPARδ GAL4 assay) in transiently transfected HEK293 cells
# Format: cell-based
# EXPERIMENTAL_PARAMETERS: luciferase reporter, Table 2
pEC50: −log10 of the molar value. Structures can show the parent of a compound that is named as a salt.

In [3]: df
Out[3]:
                                   compound                                target   test_result
0  CCc1cc(C(=O)c2ccc(OC(F)(F)F)cc2)c(NC(=O)CN[C@@H](CC)C(=O)O)s1  PPARδ (Homo sapiens, UniProt Q03181)  6.00 to 7.00
1  CCc1cc(C(=O)c2ccc(OC(F)(F)F)cc2)c(NC(=O)C2CCN(CC(=O)O)CC2)s1  PPARδ (Homo sapiens, UniProt Q03181)  4.52 to 6.00
2  CCc1cc(C(=O)c2ccc(OC(F)(F)F)cc2)c(NC(=O)CN2[C@@H](C(=O)O)CC[C@@H]2c2ccc(F)cc2)s1  PPARδ (Homo sapiens, UniProt Q03181)        > 7.00
3  CCc1cc(C(=O)c2ccc(OC(F)(F)F)cc2)c(NC(=O)CNC2(C(=O)O)CCCC2)s1  PPARδ (Homo sapiens, UniProt Q03181)        > 7.00
4  CCc1cc(C(=O)c2ccc(OC(F)(F)F)cc2)c(NC(=O)C(C)(C)SC(C)C(=O)O)s1 (stereo not shown)  PPARδ (Homo sapiens, UniProt Q03181)        > 7.00
5  CCc1cc(C(=O)c2cc(C)n(C)n2)c(NC(=O)CSCC(=O)O)s1  PPARδ (Homo sapiens, UniProt Q03181)  4.52 to 6.00
6  CCc1cc(C(=O)c2ccc(OC(F)(F)F)cc2)c(NC(=O)CN(CC)[C@@H](C)C(=O)O)s1  PPARδ (Homo sapiens, UniProt Q03181)  6.00 to 7.00
7  O=C(CN1[C@@H](C(=O)O)CC[C@@H]1c1ccccc1)Nc1sc(Cl)cc1C(=O)c1ccc(OC(F)(F)F)cc1 [Example 188, hydrochloride]  PPARδ (Homo sapiens, UniProt Q03181)        > 7.00
8  CCc1cc(C(=O)c2ccc(OC(F)(F)F)c(F)c2)c(NC(=O)CSCC(=O)O)s1  PPARδ (Homo sapiens, UniProt Q03181)        > 7.00

Now look at this one.
Exam item: Could you please provide reported pEC50 for CCc1cc(C(=O)c2ccc(OC)cc2)c(NC(=O)CSC(C)C(=O)O)s1 (stereo not shown) ? Thanks!
Marked response: 6.00 to 7.00
